- Subject of test: T1, hT40 (T441, SEQ ID NO: 1) (Homo sapiens, UniProt P10636)
- T1 construct: Full length tau (hT40)
- Procedure text: Biacore X100 SPR kinetics of scAbs for hT40
- Assay type: binding
- Condition label: Table 23; scAb captured, T441 (hT40) analyte; 1:1 model
Measured property: kd (s⁻¹)
A number alone suffices; assume s⁻¹.

Prompt line: Can you look up the measured kd of CB7: human-specific N-terminal anti-tau clone, Table 10; SEQ ID NO: 364 (protein, CB7 amino acid sequence) scFv: QVQLQESGPSLVKPSQTLSLTCTVSGFSLTNYRVGWVRQAPGKALEWVSNIRSGGTTWYNPALKSRLSITADTSKSQVSLSLSSVTTEDTAVYYCARDSSGDLYAYDYWGPGLLVTVSSEGKSSGASGESKVDDQAVLTQPSSVSRSLGQSVSMTCSGSSSNVGYGNYMAWFQQVPGSAPKLLIYGATSRASGVPDRFSGSRSGNTATLTISSLQAEDEADYYCASYDSTSGGVFGSGTRLTVLG for me?
Response line: 0.0006936

Prompt line: What do you get for CC7: human-specific anti-tau clone, Table 10; SEQ ID NO: 365 (protein, CC7 amino acid sequence) scFv: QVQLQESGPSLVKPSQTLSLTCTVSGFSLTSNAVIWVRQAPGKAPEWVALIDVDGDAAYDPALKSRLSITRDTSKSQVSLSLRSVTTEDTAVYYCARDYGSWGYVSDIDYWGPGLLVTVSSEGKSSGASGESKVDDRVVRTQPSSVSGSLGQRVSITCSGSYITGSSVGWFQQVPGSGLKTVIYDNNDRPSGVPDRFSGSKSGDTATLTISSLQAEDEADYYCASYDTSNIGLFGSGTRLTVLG ?
Response line: 0.0003659

Prompt line: Next molecule up: CE3: anti-tau core clone, Table 10; SEQ ID NO: 367 (protein, CE3 amino acid sequence) scFv: QVRLQESGPSLVKPSQTLSVTCTVSGFSLISNAVGWVRQAPGKVPESLAGCSSDGKCYYNSALKSRLDITRDTSKNQISLSLSSVTTDDAAVYYCTRGYYPVYGYDYLGTIDYWGPGLLVTVSSEGKSSGASGESKVDDQAVLTQPSSVSGSLGQRVSITCSGSSSNVGRNDVAWFQQLPGSGLRTIIYGTTSRPSGIPDRFSGSKSGVTATLTIDSLQAEDEADYFCASGDSSAINDIFGSGTRLTVLG
Response line: 0.000662

Prompt line: And what about the molecule S1G2: sheep-derived anti-tau core clone; scFv SEQ ID NO: 81, VH 455, VL 456 (protein, S1G2 amino acid sequence) scFv: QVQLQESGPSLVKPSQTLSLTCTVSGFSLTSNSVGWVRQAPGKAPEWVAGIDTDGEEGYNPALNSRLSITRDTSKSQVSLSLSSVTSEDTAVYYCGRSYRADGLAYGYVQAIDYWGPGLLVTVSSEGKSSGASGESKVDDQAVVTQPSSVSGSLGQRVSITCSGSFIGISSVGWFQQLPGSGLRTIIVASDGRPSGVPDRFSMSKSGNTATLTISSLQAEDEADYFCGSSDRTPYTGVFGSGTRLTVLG ?
Response line: 0.00018

Prompt line: Record: CE2: anti-tau core clone, Table 10; SEQ ID NO: 366 (protein, CE2/E1B8 amino acid sequence) scFv: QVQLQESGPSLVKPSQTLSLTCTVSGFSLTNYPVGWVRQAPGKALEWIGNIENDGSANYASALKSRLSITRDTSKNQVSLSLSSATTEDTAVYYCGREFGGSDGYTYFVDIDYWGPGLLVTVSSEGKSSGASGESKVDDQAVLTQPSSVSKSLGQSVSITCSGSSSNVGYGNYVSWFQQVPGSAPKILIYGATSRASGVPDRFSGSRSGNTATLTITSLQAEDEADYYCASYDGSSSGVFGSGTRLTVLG
Response line: 0.001077

Prompt line: Now the molecule S1D12: sheep-derived anti-tau core clone; scFv SEQ ID NO: 32, VH 443, VL 444 (protein, S1D12 amino acid sequence) scFv: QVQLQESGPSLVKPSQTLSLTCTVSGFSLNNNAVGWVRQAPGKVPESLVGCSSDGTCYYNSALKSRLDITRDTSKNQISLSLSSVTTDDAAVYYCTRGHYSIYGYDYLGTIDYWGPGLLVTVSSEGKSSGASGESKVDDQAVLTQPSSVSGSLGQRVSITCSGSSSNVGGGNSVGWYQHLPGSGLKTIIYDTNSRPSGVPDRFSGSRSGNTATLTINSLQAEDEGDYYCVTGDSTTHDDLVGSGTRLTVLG
Response line: 0.00015

Prompt line: Now the same for S1E12: anti-tau clone, Table 11; SEQ ID NO: 218 (protein, S1E12 amino acid sequence) scFv: QVQLQESGPSLVKPSQTLSLTCTVSGFSLGSNSVGWVRQAPGKAPEWVAGIDTDGEEGYNPALNSRLSITRDTSKSQVSLSLSSVTSEDTAVYYCGRSYRADGLAYGYVQAIDYWGPGLLVTVSSEGKSSGASGESKVDDRVVRTQPSSVSGSLGQRVSITCSGSFIGISSVGWFQQLPGSGLRTIIVASDGRPSGVPDRFSMSKSGNTATLTISSLQAEDEADYFCGSSDRTQYTGVFGSGTRLTVLG
Response line: 0.000319

Prompt line: One more molecule: NS2A1: anti-tau clone, Table 11; SEQ ID NO: 220 (protein, NS2A1 amino acid sequence) scFv: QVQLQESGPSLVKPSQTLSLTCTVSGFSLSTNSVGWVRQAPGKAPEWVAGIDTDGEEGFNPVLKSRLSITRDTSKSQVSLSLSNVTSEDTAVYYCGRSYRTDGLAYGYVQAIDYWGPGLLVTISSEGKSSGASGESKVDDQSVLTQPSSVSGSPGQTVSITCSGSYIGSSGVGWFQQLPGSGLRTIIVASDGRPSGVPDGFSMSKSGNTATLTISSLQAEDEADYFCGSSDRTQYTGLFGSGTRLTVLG
Response line: 0.0007393

Prompt line: Another molecule to check: CA4: anti-tau core clone, Table 10; SEQ ID NO: 368 (protein, CA4 amino acid sequence) scFv: QVQLQESGPSLVKPSQTLSLTCTVSGFSLTSYSVYWVRQAPGQALEWISIMYASGRVDYNPALKSRLSITRDTSKSQFSLSLSSVTTEDTAVYYCTRGIENWGPGLLVTVSSEGKSSGASGESKVDDDIQVTQSPSSLSASLTERVSITCRTSQSVNNYLSWYQQKPGQAPKLLIYYATRLYTDVPSRFSGSGSGTDYTLTITSLEADDTATYYCLQYDSTPLAFGGGTNVEIK
Response line: 0.001654
